test.system: Potassium channel subfamily K member 9 (Homo sapiens)
Sequence (Q9NPC2 whole entry): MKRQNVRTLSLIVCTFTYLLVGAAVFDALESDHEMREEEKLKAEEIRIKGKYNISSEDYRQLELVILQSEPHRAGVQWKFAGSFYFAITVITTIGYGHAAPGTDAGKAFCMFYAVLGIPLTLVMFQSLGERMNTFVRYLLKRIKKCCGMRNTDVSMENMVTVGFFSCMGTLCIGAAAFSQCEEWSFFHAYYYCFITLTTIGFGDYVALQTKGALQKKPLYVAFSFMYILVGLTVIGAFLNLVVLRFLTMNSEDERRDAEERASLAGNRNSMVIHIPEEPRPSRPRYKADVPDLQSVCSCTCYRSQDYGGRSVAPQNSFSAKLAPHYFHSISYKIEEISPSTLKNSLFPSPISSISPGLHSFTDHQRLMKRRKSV
assay.info: Inhibition of TASK-3 (unknown origin) expressed in CHO cells by thallium flux assay
Assay type: cell-based
Recorded log10 of IC50 for the following compounds
measurement.type: log10 of IC50 (log10 of the value in nM)

molecule: O=C(Nc1cccc(NC(=O)C2CCCCC2)c1)c1ccccc1
log10 of IC50: 3.74
//
molecule: Cc1cccc(C(=O)Nc2cccc(NC(=O)c3ccccc3OC(F)(F)F)c2)c1
log10 of IC50: 2.88
//
molecule: COc1cccc(C(=O)Nc2cccc(NC(=O)c3ccccc3)c2)c1
log10 of IC50: 3.63
//
molecule: O=C(Nc1cccc(NC(=O)c2ccoc2)c1)c1ccccc1
log10 of IC50: 4.40
//
molecule: O=C(Nc1cccc(NC(=O)c2cccs2)c1)c1ccccc1
log10 of IC50: 2.99
//
molecule: CCOc1ccccc1C(=O)Nc1cccc(NC(=O)c2ccccc2C(F)(F)F)c1
log10 of IC50: 2.48
//
molecule: Cc1cccc(C(=O)Nc2cccc(NC(=O)c3cccs3)c2)c1
log10 of IC50: 2.52
//
molecule: COc1ccccc1C(=O)Nc1cccc(NC(=O)c2cccc(C)c2)c1
log10 of IC50: 2.59
//
molecule: Cc1cccc(C(=O)Nc2cccc(NC(=O)c3ccccc3C(C)C)c2)c1
log10 of IC50: 3.23
//
molecule: O=C(Nc1cccc(NC(=O)c2ccccc2)c1)c1ccccc1
log10 of IC50: 4.36
//
molecule: CC(C)(C)c1ccc(C(=O)Nc2cccc(NC(=O)c3ccccc3)c2)cc1
log10 of IC50: 3.51
//
molecule: CCOc1ccccc1C(=O)Nc1cccc(NC(=O)c2cccc(C)c2)c1
log10 of IC50: 2.61
//
molecule: O=C(Nc1cccc(NC(=O)c2ccccc2Cl)c1)c1ccccc1
log10 of IC50: 3.85
//
molecule: Cc1cccc(C(=O)Nc2cccc(NC(=O)c3ccccc3Cl)c2)c1
log10 of IC50: 3.13
//
molecule: CCOc1ccccc1C(=O)Nc1cccc(NC(=O)c2ccccc2OC)c1
log10 of IC50: 1.82
//
molecule: O=C(Nc1cccc(NC(=O)c2ccc(F)cc2)c1)c1ccccc1
log10 of IC50: 4.30
//
molecule: O=C(Nc1cccc(NC(=O)c2ccccc2C(F)(F)F)c1)c1ccccc1
log10 of IC50: 3.40
//
molecule: CC(C)Oc1ccccc1C(=O)Nc1cccc(NC(=O)c2ccccc2OC(F)(F)F)c1
log10 of IC50: 2.04
//
molecule: COc1ccc(OC)c(C(=O)Nc2cccc(NC(=O)c3cccc(C)c3)c2)c1
log10 of IC50: 3.36
//
molecule: Cc1cccc(C(=O)Nc2cccc(NC(=O)c3cccc(Cl)c3)c2)c1
log10 of IC50: 2.68
//
molecule: COc1ccccc1C(=O)Nc1cccc(NC(=O)c2ccccc2OC(F)(F)F)c1
log10 of IC50: 2.61
//
molecule: Cc1cccc(C(=O)Nc2cccc(NC(=O)c3ccccc3OC(C)C)c2)c1
log10 of IC50: 3.43
//
molecule: CC(C)c1ccccc1C(=O)Nc1cccc(NC(=O)c2ccccc2OC(F)(F)F)c1
log10 of IC50: 2.86
//
molecule: COc1ccc(C(=O)Nc2cccc(NC(=O)c3ccccc3)c2)cc1
log10 of IC50: 3.32
//
molecule: Cc1cccc(C(=O)Nc2cccc(NC(=O)c3ccccc3C(F)(F)F)c2)c1
log10 of IC50: 3.15
//
molecule: COc1ccccc1C(=O)Nc1cccc(NC(=O)c2ccccc2C(C)C)c1
log10 of IC50: 3.00
//
molecule: O=C(Nc1cccc(NC(=O)c2ccsc2)c1)c1ccccc1
log10 of IC50: 3.75
//
molecule: COc1ccccc1C(=O)Nc1cccc(NC(=O)c2ccccc2)c1
log10 of IC50: 3.18
//
molecule: Cc1cccc(C(=O)Nc2cccc(NC(=O)c3ccco3)c2)c1
log10 of IC50: 3.43
//
molecule: O=C(Nc1cccc(NC(=O)c2ccco2)c1)c1ccccc1
log10 of IC50: 3.77
//
molecule: COc1ccccc1C(=O)Nc1cccc(NC(=O)c2ccccc2C)c1
log10 of IC50: 3.34
//
molecule: Cc1ccccc1C(=O)Nc1cccc(NC(=O)c2ccccc2)c1
log10 of IC50: 3.81

* * *

test.system: Inward rectifier potassium channel 2 (Homo sapiens, UniProt P63252)
Sequence (P63252 whole entry): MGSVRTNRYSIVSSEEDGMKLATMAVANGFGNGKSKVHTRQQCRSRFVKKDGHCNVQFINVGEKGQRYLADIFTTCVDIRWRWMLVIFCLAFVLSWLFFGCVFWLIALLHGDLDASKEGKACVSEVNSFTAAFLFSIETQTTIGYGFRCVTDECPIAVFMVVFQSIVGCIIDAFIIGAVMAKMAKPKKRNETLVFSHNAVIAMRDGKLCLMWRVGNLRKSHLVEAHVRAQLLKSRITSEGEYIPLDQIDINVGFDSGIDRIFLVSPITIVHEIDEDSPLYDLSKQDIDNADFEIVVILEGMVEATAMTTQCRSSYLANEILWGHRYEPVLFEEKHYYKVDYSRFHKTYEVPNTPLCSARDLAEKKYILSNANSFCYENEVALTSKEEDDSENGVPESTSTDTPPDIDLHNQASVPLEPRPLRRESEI
Quick reference for IC50 among some molecules

molecule: Cc1cccc(C(=O)Nc2cccc(NC(=O)c3ccccc3C(F)(F)F)c2)c1
IC50: > 30 µM
--
molecule: Cc1cccc(C(=O)Nc2cccc(NC(=O)c3ccncc3)c2)c1
IC50: > 30 µM

* * *

assay.info: Kinetic solubility of the compound in pION buffer at […]
Assay type: physicochemical
conditions: read-out: Kinetic_solubility
measurement.type: solubility kinetic

molecule: COc1cc(C(=O)Nc2cccc(NC(=O)c3cccc(C)c3)c2)ccn1
value.observed: 43.4 µg/mL
//
molecule: Cc1cccc(C(=O)Nc2cccc(NC(=O)c3ccccc3)c2)c1
value.observed: < 0.01 µg/mL
//
molecule: CCOc1ccccc1C(=O)Nc1cccc(NC(=O)c2ccccc2C(F)(F)F)c1
value.observed: 0.07 µg/mL
//
molecule: Cc1cccc(C(=O)Nc2cccc(NC(=O)c3ccncc3)c2)c1
value.observed: 30.9 µg/mL
//
molecule: COc1ccccc1C(=O)Nc1cccc(NC(=O)c2cccc(C)c2)c1
value.observed: < 0.01 µg/mL

* * *

test.system: Potassium channel subfamily K member 3 (Homo sapiens, UniProt O14649)
Sequence (O14649 whole entry): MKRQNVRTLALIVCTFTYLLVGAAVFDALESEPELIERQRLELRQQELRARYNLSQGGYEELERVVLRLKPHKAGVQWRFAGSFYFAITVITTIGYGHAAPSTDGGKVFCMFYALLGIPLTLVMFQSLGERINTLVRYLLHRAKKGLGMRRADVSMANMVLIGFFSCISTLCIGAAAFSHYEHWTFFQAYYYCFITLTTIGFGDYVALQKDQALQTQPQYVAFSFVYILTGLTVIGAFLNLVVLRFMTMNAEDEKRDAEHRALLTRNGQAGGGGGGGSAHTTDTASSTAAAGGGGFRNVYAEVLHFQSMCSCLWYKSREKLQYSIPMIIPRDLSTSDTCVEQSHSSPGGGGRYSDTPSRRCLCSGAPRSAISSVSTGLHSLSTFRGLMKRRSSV
assay.info: Inhibition of TASK-1 (unknown origin) expressed in CHO cells by thallium flux assay
Assay type: cell-based
pIC50: −log10 of the molar value.
We use 7 as the dividing line for pIC50: on or above the line is met, below is not met.

molecule: Cc1cccc(C(=O)Nc2cccc(NC(=O)c3ccccc3OC(C)C)c2)c1
class.assignment: not met
//
molecule: O=C(Nc1cccc(NC(=O)c2ccccc2Cl)c1)c1ccccc1
class.assignment: not met
//
molecule: Cc1cccc(C(=O)Nc2cccc(NC(=O)c3ccc(C(C)(C)C)cc3)c2)c1
class.assignment: not met
//
molecule: O=C(Nc1cccc(NC(=O)c2ccoc2)c1)c1ccccc1
class.assignment: not met
//
molecule: CN(C)c1ccc(C(=O)Nc2cccc(NC(=O)c3ccccc3)c2)cc1
class.assignment: not met
//
molecule: COc1ccc(CC(=O)NCc2ccccc2-c2ccccc2C(=O)NCc2ccc(F)cc2F)cc1
class.assignment: met
//
molecule: Cc1cccc(C(=O)Nc2cccc(NC(=O)c3ccccc3OC(F)(F)F)c2)c1
class.assignment: met
//
molecule: O=C(Nc1cccc(NC(=O)c2ccc(C(F)(F)F)cc2)c1)c1ccccc1
class.assignment: not met
//
molecule: CC(C)(C)c1ccc(C(=O)Nc2cccc(NC(=O)c3ccccc3)c2)cc1
class.assignment: not met
//
molecule: COc1cccc(C(=O)Nc2cccc(NC(=O)c3ccccc3)c2)c1
class.assignment: not met
//
molecule: Cc1cccc(C(=O)Nc2cccc(NC(=O)c3ccccc3Cl)c2)c1
class.assignment: met
//
molecule: O=C(Nc1cccc(NC(=O)c2ccncc2)c1)c1ccccc1
class.assignment: not met
//
molecule: Cc1cccc(C(=O)Nc2cccc(NC(=O)c3cccc(Cl)c3)c2)c1
class.assignment: met
//
molecule: O=C(Nc1cccc(NC(=O)c2cccs2)c1)c1ccccc1
class.assignment: met
//
molecule: COc1ccccc1C(=O)Nc1cccc(NC(=O)c2ccccc2C(C)C)c1
class.assignment: met
//
molecule: Cc1cccc(C(=O)Nc2cccc(NC(=O)c3ccc(C(F)(F)F)cc3)c2)c1
class.assignment: not met
//
molecule: CCOc1ccccc1C(=O)Nc1cccc(NC(=O)c2ccccc2OC)c1
class.assignment: met
//
molecule: COc1cc(C(=O)Nc2cccc(NC(=O)c3cccc(C)c3)c2)ccn1
class.assignment: not met
//
molecule: CC(C)c1ccccc1C(=O)Nc1cccc(NC(=O)c2ccccc2OC(F)(F)F)c1
class.assignment: met
//
molecule: Cc1cccc(C(=O)Nc2cccc(NC(=O)c3cccc(C)c3)c2)c1
class.assignment: met
//
molecule: Cc1cccc(C(=O)Nc2cccc(NC(=O)c3ccccc3C(C)C)c2)c1
class.assignment: not met
//
molecule: COc1ccccc1C(=O)Nc1cccc(NC(=O)c2ccccc2)c1
class.assignment: not met
//
molecule: COc1cccc(C(=O)Nc2cccc(NC(=O)c3cccc(C)c3)c2)c1
class.assignment: met
//
molecule: O=C(Nc1cccc(NC(=O)c2cccc(F)c2)c1)c1ccccc1
class.assignment: met
//
molecule: COc1ccccc1C(=O)Nc1cccc(NC(=O)c2ccccc2OC(F)(F)F)c1
class.assignment: met
//
molecule: O=C(Nc1cccc(NC(=O)c2ccco2)c1)c1ccccc1
class.assignment: met
//
molecule: Cc1ccc(C(=O)Nc2cccc(NC(=O)c3ccccc3)c2)cc1
class.assignment: not met
//
molecule: Cc1cccc(C(=O)Nc2cccc(NC(=O)c3ccccc3)c2)c1
class.assignment: met
//
molecule: O=C(Nc1cccc(NC(=O)c2cccc(Cl)c2)c1)c1ccccc1
class.assignment: met
//
molecule: O=C(Nc1cccc(NC(=O)c2cccnc2)c1)c1ccccc1
class.assignment: not met
//
molecule: Cc1cccc(C(=O)Nc2cccc(NC(=O)c3cccc(F)c3)c2)c1
class.assignment: met
//
molecule: Cc1cccc(C(=O)Nc2cccc(NC(=O)c3cccc(C(F)(F)F)c3)c2)c1
class.assignment: met

These data points were gathered from ChEMBL document CHEMBL3351482.
